- Tested on: Mythimna separata
- protocol notes: Insecticidal activity against Mythimna separata (Oriental armyworm) in wheat leaves assessed as mortality rate at 1 mg/mL at 25 degC measured after 10 days by leaf-dipping method relative to control
- Type: functional
- cond: 240 h
endpoint name: mortality at 1000 µg/mL (%)
Note: unit % is implicit; provide only the numeric part.

Field request: mortality at 1000 µg/mL | item: "Cc1ccc(C(=O)OCC2=C3C(=O)O[C@@H](c4ccoc4)[C@]3(C)CCC2)cc1"
17.2

Given the compound "CC1=C2C(=O)O[C@@H](c3ccoc3)[C@]2(C)CC[C@H]1OC(=O)c1cccnc1" , what is its reported mortality at 1000 µg/mL?
20.7

Sample "CC(=O)O[C@@H]1C[C@H](O)[C@@]23CO[C@@H](O)[C@]1(C)[C@@H]2C[C@@H](O)[C@]1(C)[C@@H]3C(=O)[C@H](OC(C)=O)[C@@]2(C)[C@H](c3ccoc3)C[C@H]3O[C@]321" — what was its mortality at 1000 µg/mL?
27.6

mortality at 1000 µg/mL lookup needed for "C[C@@]12CCCC(CO)=C1C(=O)O[C@H]2c1ccoc1" , thanks.
10.3
